system: THP-1; assay: Antiproliferative activity against IFN-gamma-treated human THP-1 cells incubated for 7 days by CellTiter-Glo assay; format: functional, cell-based; details: THP-1, 168 h
Property: IC50 (µM)

> print(dat)
                        structure.as.smiles  property  value.measured
1  O=C(NCc1cn2cc(CNCc3ccccc3)ccc2n1)c1cc(=O)n2ccccc2n1      IC50            2.12
